system: KRas G12V (Homo sapiens, UniProt P01116, G12V);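 note: KRas binding measured by TR-FRET displacement at room temperature, IC50 fitted from percent of control values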
Sequence (P01116 1-169 isoform P01116-2 G12V): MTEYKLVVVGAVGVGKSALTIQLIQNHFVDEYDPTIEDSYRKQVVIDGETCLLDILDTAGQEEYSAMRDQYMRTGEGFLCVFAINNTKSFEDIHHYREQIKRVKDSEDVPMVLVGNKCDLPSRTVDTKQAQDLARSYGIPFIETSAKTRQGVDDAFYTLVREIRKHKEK
assayText: biochemical
pIC50: −log10 of the molar value.
Each entry below carries its reported pIC50.

molecule	pIC50
O=C1C[C@]2(CCCN(c3nc(OC[C@@]45CCCN4C[C@H](F)C5)nc4c(F)c(-c5cc(O)cc6ccc(F)c(Cl)c56)ncc34)C2)N1 [Example 416]	≥ 8.70
CCc1c(F)ccc2cc(O)cc(-c3ncc4c(NCC5CNS(=O)(=O)N5)nc(OC[C@@]56CCCN5C[C@H](F)C6)nc4c3F)c12 (stereo partly drawn) [Example 494]	≥ 8.70
CCc1c(F)ccc2cc(O)cc(-c3ncc4c(N5CCC[C@@](C)(O)C5)nc(OC[C@@]56CCCN5[C@H](COC(=O)N(C)C)CC6)nc4c3F)c12 [Example 314]	≥ 8.70
CCc1c(F)ccc2cc(O)cc(-c3ncc4c(NCCC5CNC(=O)N5)nc(OC[C@@]56CCCN5C[C@H](F)C6)nc4c3F)c12 (stereo partly drawn) [Example 382]	≥ 8.70
O=C1CC2CCN(c3nc(OCC45CCCN4CCC5)nc4c(F)c(-c5cccc6cccc(F)c56)ncc34)CC2C(=O)N1 (stereo not drawn) [Example 335]	≤ 4.00
CCc1c(F)ccc2cc(O)cc(-c3ncc4c(NCCC(N)=O)nc(OC[C@@]56CCCN5C[C@H](F)C6)nc4c3F)c12 [Example 141]	≥ 8.70

----------
Tested on: pERK in PSN1 cells
assayText: Inhibition of KRas phosphorylation of ERK (Cisbio HTRF pERK assay)
runParameters: Homo sapiens, PSN1, 3 h, read-out: Inhibition (HTRF IC50) of KRas-mediated Phosphorylation of ERK, PSN1

molecule	IC50
CCc1c(F)ccc2cc(O)cc(-c3ncc4c(N5CCCc6nn(C(=O)NC(C)C)cc6C5)nc(OC[C@@]56CCCN5C[C@H](F)C6)nc4c3F)c12 [Example 479]	≥ 10 µM
CCc1c(F)ccc2cc(O)cc(-c3ncc4c(N5CCC[C@]6(C5)C[C@](C)(O)C6)nc(OCC56CCCN5CCC6)nc4c3F)c12 [Example 328]	≥ 10 µM
O=C1NC(=O)C2CN(c3nc(OC[C@@]45CCCN4C[C@H](F)C5)nc4c(F)c(-c5cc(O)cc6ccc(F)c(Br)c56)ncc34)CC12 (stereo partly drawn) [Example 404]	≥ 10 µM

----------
system: KRas G12S (Homo sapiens, UniProt P01116, G12S);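 note: TR-FRET displacement binding to KRas, read after one hour incubation at room temperature, IC50 from four-parameter fit of percent of control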
Sequence (P01116 1-169 isoform P01116-2 G12S): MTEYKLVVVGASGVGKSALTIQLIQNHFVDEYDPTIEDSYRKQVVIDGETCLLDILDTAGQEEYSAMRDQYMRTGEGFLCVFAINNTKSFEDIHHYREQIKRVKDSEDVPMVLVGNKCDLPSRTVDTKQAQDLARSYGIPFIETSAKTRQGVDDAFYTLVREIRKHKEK
assayText: biochemical
pIC50: −log10 of the molar value.
readoutType: pIC50

>>> df
                                   compound  reportedmeasurement
0  O=C1NC(=O)C2(COCCN(c3nc(OCC45CCCN4CCC5)nc4c(F)c(-c5cccc6cccc(F)c56)ncc34)C2)N1 (centres unmarked) [Example 272]                 6.88
1  Cc1cc2[nH]ncc2c(-c2ncc3c(N4CCCC(C)(O)C4)nc(OCC45CCCN4CCC5)nc3c2F)c1C1CC1 (centres unmarked) [Example 144]                 7.19
2  N#CC1CCCN(c2nc(OCC34CCCN3CCC4)nc3c(F)c(-c4cccc5cccc(F)c45)ncc23)CC1 (centres unmarked) [Example 87]                 4.96
3  O[C@@H]1C[C@H](O)CN(c2nc(OCC34CCCN3CCC4)nc3c(F)c(-c4cccc5cccc(F)c45)ncc23)C1 [Example 89]                 5.81
4  CC1(O)CCCN(c2nc(OCC3(CN4CCCC4)CC3)nc3c(F)c(-c4cccc5cccc(F)c45)ncc23)C1 (centres unmarked) [Example 257]                 5.28
5  C#Cc1c(F)ccc2cccc(-c3ncc4c(N5CCC[C@@](C)(O)C5)nc(OCC56CCCN5CCC6)nc4c3F)c12 [Example 14]                 7.24
6  Fc1c(-c2cccc3cccc(F)c23)ncc2c(N3CCCC(c4cc[nH]n4)C3)nc(OCC34CCCN3CCC4)nc12 (centres unmarked) [Example 131]                 5.03
7  Fc1c(-c2cccc3cccc(F)c23)ncc2c(N3CC=CCC3)nc(OCC34CCCN3CCC4)nc12 [Example 123]                 5.56

----------
system: KRas WT (Homo sapiens);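 note: binding to KRas read as TR-FRET displacement after a one-hour room-temperature incubation, IC50 derived from percent-of-control values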
Sequence (P01116 1-169 isoform P01116-2): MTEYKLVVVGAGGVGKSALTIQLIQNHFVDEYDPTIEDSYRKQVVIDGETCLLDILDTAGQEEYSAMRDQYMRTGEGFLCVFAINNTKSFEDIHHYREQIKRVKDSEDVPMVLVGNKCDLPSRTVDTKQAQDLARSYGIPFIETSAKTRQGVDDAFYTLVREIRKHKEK
pIC50: −log10 of the molar value.
Overview of recorded pIC50 for various molecules
readoutType: pIC50

In [3]: df
Out[3]:
                                   molecule                  system  readouttype  measurementqualifier  reportedmeasurement
0  C#Cc1c(F)ccc2cc(O)cc(-c3ncc4c(N5C[C@@H]6C[C@H](C5)[C@H](O)C6)nc(OC[C@@]56CCCN5C[C@H](F)C6)nc4c3F)c12  KRas WT (Homo sapiens)        pIC50                     ≥                 8.70
1  C[C@@]1(O)CCCN(c2nc(OC[C@@]34CCCN3C[C@H](F)C4)nc3c(F)c(-c4c5ccccc5cc5[nH]ncc45)ncc23)C1  KRas WT (Homo sapiens)        pIC50                     =                 7.27
2  NS(=O)(=O)CC1CCCN(c2nc(OCC34CCCN3CCC4)nc3c(F)c(-c4cccc5cccc(CO)c45)ncc23)C1 (stereo not shown)  KRas WT (Homo sapiens)        pIC50                     =                 5.69
3  O=C1NCC12CCCN(c1nc(OCC34CCCN3CCC4)nc3c(F)c(-c4cccc5cccc(F)c45)ncc13)C2 (stereo not shown)  KRas WT (Homo sapiens)        pIC50                     =                 5.47
4  Cc1cccc2cccc(-c3ncc4c(N5CCCC(CS(N)(=O)=O)C5)nc(OCC56CCCN5CCC6)nc4c3F)c12 (stereo not shown)  KRas WT (Homo sapiens)        pIC50                     =                 7.02
5  CC1(O)CCCN(c2nc(OCC3(CN4CCCC4)CC3)nc3c(F)c(-c4cccc5cccc(F)c45)ncc23)C1 (stereo not shown)  KRas WT (Homo sapiens)        pIC50                     =                 5.40
6  CCc1c(F)ccc2cc(O)cc(-c3ncc4c(N5C[C@@H]6C[C@H](C5)[C@H](O)C6)nc(OCC5(CN6CCCC6)CC5)nc4c3F)c12  KRas WT (Homo sapiens)        pIC50                     ≥                 8.70

----------
Test system: pERK in H460 cells
assayText: Inhibition of KRas phosphorylation of ERK (Cisbio HTRF pERK assay)
runParameters: Homo sapiens, NCI-H460, read-out: Inhibition (HTRF IC50) of KRas-mediated Phosphorylation of ERK, H460
pIC50: −log10 of the molar value.
Reported pIC50 values for the following compounds.

compound	pIC50
CCc1c(F)ccc2cc(O)cc(-c3ncc4c(N5CCCC(O)(C(F)F)C5)nc(OC[C@@]56CCCN5C[C@H](F)C6)nc4c3F)c12 (some centres unmarked)	7.41
CCc1c(F)ccc2cc(O)cc(-c3ncc4c(NCc5ccc6nccn6c5)nc(OC[C@@]56CCCN5C[C@H](F)C6)nc4c3F)c12	6.84
CCc1c(F)ccc2cc(O)cc(-c3ncc4c(N5CC6C(=O)NC(=O)C6(C)C5)nc(OC[C@@]56CCCN5C[C@H](F)C6)nc4c3F)c12 (some centres unmarked)	6.91
CCc1c(F)ccc2cc(O)cc(-c3ncc4c(N5CCC[C@@](C)(O)C5)nc(OCC5(CN6CCCC6)CC5)nc4c3F)c12	7.55
CCc1c(F)ccc2cc(O)cc(-c3ncc4c(N5C[C@@H]6C[C@H](C5)[C@H](O)C6)nc(OC[C@@]56CCCN5C[C@H](F)C6)nc4c3F)c12 (single isomer, unassigned)	8.40
CCc1c(F)ccc2cc(O)cc(-c3ncc4c(N5CCC[C@@H](O)C5)nc(OC[C@@]56CCCN5C[C@H](F)C6)nc4c3F)c12	7.38
CCc1c(F)ccc2cc(O)cc(-c3ncc4c(N5CCCC6(CC(=O)N6)C5)nc(OC[C@@]56CCCN5C[C@H](F)C6)nc4c3F)c12 (some centres unmarked)	6.92
CCc1c(F)ccc2cc(O)cc(-c3ncc4c(N5CCCCCC(S(C)(=O)=O)C5)nc(OC[C@@]56CCCN5C[C@H](F)C6)nc4c3F)c12 (some centres unmarked)	7.24
CCc1c(F)ccc2cc(O)cc(-c3ncc4c(N5CCCOC(CO)C5)nc(OC[C@@]56CCCN5C[C@H](F)C6)nc4c3F)c12 (some centres unmarked)	6.89
O=S1(=O)NC[C@]2(CCCN(c3nc(OC[C@@]45CCCN4C[C@H](F)C5)nc4c(F)c(-c5cc(O)cc6ccc(F)c(Cl)c56)ncc34)C2)N1	7.72
CCc1c(F)ccc2cc(O)cc(-c3ncc4c(N5CCCc6nn(C(=O)N(C)C)cc6C5)nc(OC[C@@]56CCCN5C[C@H](F)C6)nc4c3F)c12	6.83
C#Cc1c(F)ccc2cc(O)cc(-c3ncc4c(N5CCCn6nc(C(=O)N(C)C)cc6C5)nc(OC[C@@]56CCCN5C[C@H](F)C6)nc4c3F)c12	6.41
CC1(O)COCCN(c2nc(OC[C@@]34CCCN3C[C@H](F)C4)nc3c(F)c(-c4cc(O)cc5ccc(F)c(Cl)c45)ncc23)C1 (some centres unmarked)	6.74
CCc1c(F)ccc2cc(O)cc(-c3ncc4c(N5CCCC6(CNC6=O)C5)nc(OC[C@@]56CCCN5C[C@H](F)C6)nc4c3F)c12 (some centres unmarked)	6.49

Values from patent US12398154B2
